Entries and their percent inhibition of viability values follow.
system: normal primary NK cells, pool 3 (3 donors) (IL-2 2.5 ng/mL); assay: percent inhibition of viability; higher = more inhibition; conditions: 72 h; 1 nM
Numeric answer only, unit % assumed.

Cc1nc(Nc2ncc(C(=O)Nc3c(C)cccc3Cl)s2)cc(N2CCN(CCO)CC2)n1 [Dasatinib] (max concentration tested 1000 nM); 14.8
COc1ccccc1S(=O)(=O)Nc1ccc2c(c1)CN(C)C(=O)N2 [PFI-1] (max concentration tested 10000 nM); -2.26
C[C@]12C=CC(=O)C=C1CC[C@@H]1[C@@H]2C(=O)C[C@@]2(C)[C@H]1CC[C@]2(O)C(=O)CO [Prednisone] (max concentration tested 10000 nM); -8.77
CO[C@H]1C[C@@H]2CC[C@@H](C)[C@@](O)(O2)C(=O)C(=O)N2CCCC[C@H]2C(=O)O[C@H]([C@H](C)C[C@@H]2CC[C@@H](O)[C@H](OC)C2)CC(=O)[C@H](C)/C=C(\C)[C@@H](O)[C@@H](OC)C(=O)[C@H](C)C[C@H](C)/C=C/C=C/C=C/1C [Sirolimus] (max concentration tested 100 nM); 3.92

Task item: Entry O=C(Nc1c[nH]nc1-c1nc2ccc(CN3CCOCC3)cc2[nH]1)NC1CC1 [AT9283] (max concentration tested 1000 nM) has what percent inhibition of viability?
Reply: -12.2

====

Entries and their percent inhibition of viability values follow.
test system: IMC-1 (IL-2 20 ng/mL); experiment: percent inhibition of viability; higher = more inhibition; settings: 72 h; 1000 nM
Numeric answer only, unit % assumed.

The examples below pair each entry with its known result.
Nc1cccc2c1CN(C1CCC(=O)NC1=O)C2=O (configuration not stated) [Lenalidomide] (max concentration tested 100000 nM); 2.6
O=C(NC1CCNCC1)c1n[nH]cc1NC(=O)c1c(Cl)cccc1Cl [AT7519] (max concentration tested 10000 nM); 96.8
CON(C)C(=O)N1N=C(c2cc(F)ccc2F)S[C@@]1(CCCN)c1ccccc1 [Filanesib] (max concentration tested 1000 nM); 99.5
Clc1ccccc1C(c1ccccc1)(c1ccccc1)n1cccn1 [TRAM-34] (max concentration tested 1000 nM); 8.82
C1=N/C2=N/c3ccc(OCCN4CCCC4)c(c3)COC/C=C/COCc3cccc(c3)C(=C1)N2 [Pacritinib] (max concentration tested 10000 nM); -17.7

Task item: Entry O=c1ncn2nc(Sc3ccc(F)cc3F)ccc2c1-c1c(Cl)cccc1Cl [VX 745] (max concentration tested 10000 nM) has what percent inhibition of viability?
Reply: 4.33

Task item: Entry C/C(=C\c1csc(C)n1)[C@@H]1C[C@@H]2O[C@]2(C)CCC[C@H](C)[C@H](O)[C@@H](C)C(=O)C(C)(C)[C@@H](O)CC(=O)O1 [Patupilone] (max concentration tested 1000 nM) has what percent inhibition of viability?
Reply: 99.2

Task item: Entry O=C(c1cc(Cc2n[nH]c(=O)c3ccccc23)ccc1F)N1CCN(C(=O)C2CC2)CC1 [Olaparib] (max concentration tested 10000 nM) has what percent inhibition of viability?
Reply: 13.7

Task item: Entry O=C(NOC[C@H](O)CO)c1ccc(F)c(F)c1Nc1ccc(I)cc1F (max concentration tested 1000 nM) has what percent inhibition of viability?
Reply: -9.8

====

tested on: IMC-1 (IL-2 20 ng/mL); assay: percent inhibition of viability; higher = more inhibition; details: 72 h; 1000 nM
Entries and their percent inhibition of viability values follow.
Numeric answer only, unit % assumed.

N.N.[Cl][Pt][Cl] [Cisplatin] (max concentration tested 100000 nM); 84.2
S=C(NCc1ccc2c(c1)OCO2)N1CCN(c2ncnc3c2oc2ccccc23)CC1 [Amuvatinib] (max concentration tested 10000 nM); 41.2
COc1cc(Nc2c(C#N)cnc3cc(OCCCN4CCN(C)CC4)c(OC)cc23)c(Cl)cc1Cl [Bosutinib] (max concentration tested 10000 nM); -9.81
C[C@@H]1CN(Cc2ccc(F)cc2)[C@@H](C)CN1C(=O)c1cc2c(C(=O)C(=O)N(C)C)cn(C)c2cc1Cl [Talmapimod] (max concentration tested 10000 nM); -10.4
CNc1nc(-c2ccc3c(N)n[nH]c3c2)cc(N2C[C@@H](C(=O)NC3CCCCC3)CC[C@H]2C)n1 (max concentration tested 10000 nM); -20.3

Next compound, please.
Task item: Entry C[C@@H](Oc1ccc2[nH]nc(/C=C/c3cnn(CCO)c3)c2c1)c1c(Cl)cncc1Cl (max concentration tested 1000 nM) has what percent inhibition of viability?
Reply: 98.1

====

Entries and their relative IC50 values follow.
tested on: KHYG-1 (IL-2 2.5 ng/mL); experiment: relative IC50 (inflection point of fitted viability curve, relative to fitted max inhibition); higher = less sensitive; settings: 72 h
Numeric answer only, unit nM assumed.

Task item: Entry CC[C@@H]1C(=O)N(C)c2cnc(Nc3ccc(C(=O)N[C@H]4CC[C@H](N5CCN(CC6CC6)CC5)CC4)cc3OC)nc2N1C(C)C has what relative IC50?
Reply: 28.3

Task item: Entry Cc1ccc(C(=O)N(CCCN)[C@@H](c2oc3cc(Cl)ccc3c(=O)c2Cc2ccccc2)C(C)C)cc1 has what relative IC50?
Reply: 3.04

Task item: Entry CN1CCN(CCOc2cc(OC3CCOCC3)c3c(Nc4c(Cl)ccc5c4OCO5)ncnc3c2)CC1 has what relative IC50?
Reply: 3140

Task item: Entry Cc1cc(OCc2nnc(SC3CCCC3)n2-c2cccnc2)ccc1-c1ccc(S(C)(=O)=O)cc1 has what relative IC50?
Reply: 250

====

system: DERL-7 (IL-2 2.5 ng/mL); assay: drug sensitivity score (DSS) (DSS units); higher = more sensitive; extreme values may be limits of the assay; settings: 72 h
Entries and their drug sensitivity score values follow.

CN(C)C[C@@H]1CCn2cc(c3ccccc32)C2=C(C(=O)NC2=O)c2cn(c3ccccc23)CCO1 [Ruboxistaurin] (max concentration tested 10000 nM); 10.5
Cn1cc(-c2ccc3nnc(Sc4ccc5ncccc5c4)n3n2)cn1 [SGX-523] (max concentration tested 5000 nM); 0.58
CCOc1cc2ncc(C#N)c(Nc3ccc(F)c(Cl)c3)c2cc1NC(=O)/C=C/CN(C)C [Pelitinib] (max concentration tested 2500 nM); 10.7
CO[C@@]12[C@H](COC(N)=O)C3=C(C(=O)C(C)=C(N)C3=O)N1C[C@@H]1N[C@@H]12 [Mitomycin C] (max concentration tested 10000 nM); 0

Task item: Item: O=C(NOC[C@H](O)CO)c1ccc(F)c(F)c1Nc1ccc(I)cc1F (max concentration tested 1000 nM) Test system: DERL-7 (IL-2 2.5 ng/mL) Read-out: drug sensitivity score Value: ?
Reply: 23.1

====

system: SNK-6 (IL-2 2.5 ng/mL); assay: percent inhibition of viability; higher = more inhibition; settings: 72 h; 10000 nM
Entries and their percent inhibition of viability values follow.
Numeric answer only, unit % assumed.

O[C@H]1CC[C@H](Nc2ncc3nc(Nc4c(F)cc(F)cc4F)n([C@H]4CCOC4)c3n2)CC1 [Tanzisertib] (max concentration tested 10000 nM); -28.9

Task item: Entry CO[C@@]12[C@H](COC(N)=O)C3=C(C(=O)C(C)=C(N)C3=O)N1C[C@@H]1N[C@@H]12 [Mitomycin C] (max concentration tested 10000 nM) has what percent inhibition of viability?
Reply: 90

Task item: Entry C1=N/C2=N/c3ccc(OCCN4CCCC4)c(c3)COC/C=C/COCc3cccc(c3)C(=C1)N2 [Pacritinib] (max concentration tested 10000 nM) has what percent inhibition of viability?
Reply: 99.4

====

tested on: normal primary NK cells, pool 1 (3 donors), resting (IL-2 0 ng/mL); assay: percent inhibition of viability; higher = more inhibition; settings: 72 h; 10 nM
Label key: 1 means percent inhibition of viability under -10%; -1 means percent inhibition of viability of -10% or more.

Task item: Identify whether the compound C#Cc1cccc(Nc2ncnc3cc(OCCOC)c(OCCOC)cc23)c1 [Erlotinib] (max concentration tested 10000 nM) records percent inhibition of viability below -10%.
Reply: 1

Task item: Identify whether the compound COc1cc2nccc(Oc3ccc(NC(=O)C4(C(=O)Nc5ccc(F)cc5)CC4)cc3)c2cc1OC [Cabozantinib] (max concentration tested 1000 nM) records percent inhibition of viability below -10%.
Reply: -1

Task item: Identify whether the compound CO[C@@H]1[C@H](N(C)C(=O)c2ccccc2)C[C@H]2O[C@]1(C)n1c3ccccc3c3c4c(c5c6ccccc6n2c5c31)C(=O)NC4 [Midostaurin] (max concentration tested 10000 nM) records percent inhibition of viability below -10%.
Reply: 1

Task item: Identify whether the compound Nc1ncnc2c1c(COc1cccc(Cl)c1)nn2C1CCOCC1 (max concentration tested 10000 nM) records percent inhibition of viability below -10%.
Reply: -1

Task item: Identify whether the compound CC[C@H](CO)Nc1nc(NCc2ccccc2)c2ncn(C(C)C)c2n1 [Seliciclib] (max concentration tested 10000 nM) records percent inhibition of viability below -10%.
Reply: -1
